Counter-ions that a name gives are not always drawn.
Could you please report measured melting point for the items listed next?

Some solved cases for reference:
IN: Request the reported melting point associated with `Cn1cc(C(=O)c2ccc(Cl)cc2)cc1C(=O)CN1CCCCC1`
OUT: 129 to 130 °C

IN: I would be grateful if you could share the reported melting point for Cn1cc(C(=O)c2ccc(Cl)cc2)cc1C(=O)CN1CCOCC1 (as salt: hydrochloride) .
OUT: 264 to 267 °C

IN: Entry Cn1cc(C(=O)CN)cc1C(=O)c1ccc(Cl)cc1 (as salt: hydrochloride) has what melting point?
OUT: 290 °C (dec.)

// next entry
IN: Endpoint output: melting point of Cn1cc(C(=O)c2ccc(Cl)cc2)cc1C(=O)CN1CCCC1 (as salt: hydrochloride) . Value?
OUT: 265 to 267 °C
